Reported selectivity ratio is given for each of the following compounds.
assay: Therapeutic index, ratio of CC50 for cytotoxicity against human Hep2 cells to EC50 for antiviral activity against Respiratory syncytial virus Long infected in HEp-2 cells; assay type: toxicity, cell-based; conditions: read-out: Ratio CC50/EC50
Enter the number alone.

CS(=O)(=O)CCn1c(CN2C(=O)C3(CC3)c3ccncc32)cc2cc(Cl)ncc21 | 300
CS(=O)(=O)CCn1c(CN2C(=O)C3(CC3)c3ccncc32)cc2ccccc21 | 352

input: Tell me its selectivity ratio given `CS(=O)(=O)CCn1c(CN2C(=O)C3(CC3)c3ccncc32)cc2cccc(Cl)c21` as the entry.
output: 543

input: Entry `CCc1cccc2c1cc(CN1C(=O)C3(CC3)c3ccncc31)n2CCS(C)(=O)=O` needs its selectivity ratio filled in; supply it.
output: 395
